Item-by-item account of pIC50
test system: Splenocyte; test: Immunosuppressive activity in BALB/c mouse splenocytes assessed as inhibition of LPS-stimulated B-cell proliferation incubated for 48 hrs by MTT assay; assay type: functional, cell-based
pIC50: −log10 of the molar value.

SMILES_DATA: C[C@H](O)CCC[C@@H]1CCCC(=O)Cc2cc(O)cc(O)c2C(=O)O1
pIC50: < 4.30
//
SMILES_DATA: COc1cc(O)c2c(c1)/C=C/CC[C@H](O)[C@H](O)CCC[C@H](C)OC2=O
pIC50: < 4.30
//
SMILES_DATA: COc1cc(O)c2c(c1)/C=C/C[C@H](O)[C@@H](O)[C@@H](O)CCC[C@H](C)OC2=O
pIC50: < 4.30
